Biological target: Mannose-6-phosphate isomerase (Homo sapiens) (UniProt P34949)
Sequence (P34949 whole entry, looked up): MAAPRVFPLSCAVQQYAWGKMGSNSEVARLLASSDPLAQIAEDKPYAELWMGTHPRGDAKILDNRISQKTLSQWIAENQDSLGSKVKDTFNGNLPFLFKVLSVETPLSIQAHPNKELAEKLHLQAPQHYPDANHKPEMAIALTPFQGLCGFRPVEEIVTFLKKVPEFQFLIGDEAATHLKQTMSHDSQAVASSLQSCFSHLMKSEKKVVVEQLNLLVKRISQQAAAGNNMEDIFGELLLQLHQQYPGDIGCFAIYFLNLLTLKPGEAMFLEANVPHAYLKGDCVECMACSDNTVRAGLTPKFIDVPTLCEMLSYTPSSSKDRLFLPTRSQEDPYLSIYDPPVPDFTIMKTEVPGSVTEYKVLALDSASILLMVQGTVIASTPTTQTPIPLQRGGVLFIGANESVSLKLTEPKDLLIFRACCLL
Test: MPI inhibition at elevated mannose 6-phosphate – biochemical, fluorescence intensity, high mannose 6-phosphate, primary screen (AID 1220)
Conditions: recombinant PMI enzyme, coupled fluorescence intensity; at 20 µM; hits give high values
The campaign covered roughly 190,000 compounds. About 1,300 (0.68%) were called active. What follows is part of a selection rich in actives, with near analogues and random picks from the rest.
Reported Property: inhibition (%)

Smiles Repr | Tested System | Readout Value
N#Cc1cc(Oc2ccccc2)c(-n2nnc3ccccc32)cc1C#N | Mannose-6-phosphate isomerase (Homo sapiens) (UniProt P34949) | 3.1
O=C1CSc2ccc(C(=O)NCCC3=CCCCC3)cc2N1 | Mannose-6-phosphate isomerase (Homo sapiens) (UniProt P34949) | -5.5
CCc1ccc(Oc2cc(C)nc(N)n2)cc1 | Mannose-6-phosphate isomerase (Homo sapiens) (UniProt P34949) | -0.3
CNc1nc(-c2c[nH]c3ccccc23)cs1 | Mannose-6-phosphate isomerase (Homo sapiens) (UniProt P34949) | -53.9
CCCN1CCCc2ccccc21 | Mannose-6-phosphate isomerase (Homo sapiens) (UniProt P34949) | -58.9

----------
Molecular target: Mannose-6-phosphate isomerase (Homo sapiens)
Test: MPI inhibition at elevated mannose 6-phosphate – biochemical, fluorescence intensity, high mannose 6-phosphate, primary screen (AID 1220)
Conditions: recombinant PMI enzyme, coupled fluorescence intensity; at 20 µM; hits give high values
Among all 190,000 compounds or so, about 1,300 (0.68%) were called active. The full list was thinned out, with actives kept by preference.
inhibition overview

Molecule | Tested System | inhibition (%)
CC1CC(N(C(=O)c2ccco2)c2ccccc2)c2ccccc2N1 (stereo not given) | Mannose-6-phosphate isomerase (Homo sapiens) | 17.9
C=CCOn1c(=O)c(-c2ccccc2)[n+]([O-])c2ccccc21 | Mannose-6-phosphate isomerase (Homo sapiens) | 12
CCCCNC(=O)CCC(=O)Nc1ccc2nc(N3CCN(C)CC3)cc(C)c2c1 | Mannose-6-phosphate isomerase (Homo sapiens) | 12
CC(=O)c1cc2c(cc1NC(=O)CCc1ccccc1)OCO2 | Mannose-6-phosphate isomerase (Homo sapiens) | 0.5
CC(C(=O)Nc1cccc([N+](=O)[O-])c1)N1CCN(C/C=C/c2ccccc2)CC1 (stereo not given) | Mannose-6-phosphate isomerase (Homo sapiens) | 12
Cc1ccc(C(=O)Nc2ccc(C(=O)N3CCCCC3C)cc2)cc1 (stereo not given) | Mannose-6-phosphate isomerase (Homo sapiens) | 1
c1ccc(CC2CNc3ccccc3CN2)cc1 (stereo not given) | Mannose-6-phosphate isomerase (Homo sapiens) | -7
N#CC1=C2SCN(Cc3ccco3)CN2C(=O)CC1c1cccc2ccccc12 (stereo not given) | Mannose-6-phosphate isomerase (Homo sapiens) | 68.8
Cc1cc(-n2c(C)cc(C(=O)COc3ccccc3[N+](=O)[O-])c2C)no1 | Mannose-6-phosphate isomerase (Homo sapiens) | 9.1
O=C(O)CN1C(=O)/C(=C/c2ccsc2)SC1=S | Mannose-6-phosphate isomerase (Homo sapiens) | -5.3
Cc1ccccc1N1CC(=O)N(c2ccccc2C)CC1=O | Mannose-6-phosphate isomerase (Homo sapiens) | -4.3
COc1ccc(CCC(=O)N2CC(C)OC(C)C2)cc1 (stereo not given) | Mannose-6-phosphate isomerase (Homo sapiens) | 5.2
Clc1ccccc1OCc1nnc(-c2ccccc2Br)o1 | Mannose-6-phosphate isomerase (Homo sapiens) | 5.6
CCc1ccc(NC(=O)NCCN2CCc3ccccc3C2)cc1 | Mannose-6-phosphate isomerase (Homo sapiens) | -6.5
Cc1ccc2nc(NC(=O)c3ccc(-c4nc5ccccc5s4)s3)sc2c1 | Mannose-6-phosphate isomerase (Homo sapiens) | -17.4
